- Test system: Wistarratten
- ASSAY METHOD TEXT: Orienting determination of acute toxicity in rats, i.v.
- Format: in vivo, Ratte
- CONDITIONS: therapeutic breadth; rat LD₅₀ i.v. / rat CaCl₂-arrhythmia ED₅₀
MEASURED ENDPOINT: Q LD₅₀/ED₅₀
Please respond with just the number, no unit label.

Before answering, review these 3 worked examples.
STRUCTURE AS SMILES	MEAS VALUE
O=C1Nc2cc(Cl)ccc2N(C(=O)CCCCCCN2CCOCC2)c2ccccc21	256
CN(C)CCCCCC(=O)N1c2ccccc2NC(=O)c2ccccc21	207
CCN(CC)CCCCCC(=O)N1c2ccc(Cl)cc2NC(=O)c2ccccc21	86

Dear colleague, I am looking for the recorded Q LD₅₀/ED₅₀ of the following compound: "CCN(CC)CCCC(=O)N1c2ccc(Cl)cc2NC(=O)c2ccccc21"
1614
